Molecular target: human CD4 (CD4-YFP) (Homo sapiens, UniProt P01730)
Experiment: CD4 down-modulation in CD4-YFP transfected CHO cells
pIC50: −log10 of the molar value.

# COMPOUND, pIC50
records = [
    ("C=C1CN(S(=O)(=O)c2ccc(C)cc2)CCc2cc(CCCC)cc(n2)CCN(S(=O)(=O)c2ccc(C)cc2)C1.Cl [Compound 3j]", 6.30),
]
